- System: ATP;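 also: ATP exposure 15 min at 22 °C before imaging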
- Procedure summary: switch fluorescence ratio, 500 uM ATP over buffer (Cy3 cluster intensity, sum of 5 cycles each) (fold (ratio)); higher = stronger signal-on switching upon ATP binding; sequences stand for … in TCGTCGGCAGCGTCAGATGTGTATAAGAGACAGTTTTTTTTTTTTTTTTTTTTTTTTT…TC
- Condition notes: aptamer strand: ATP DNA aptamer (quencher-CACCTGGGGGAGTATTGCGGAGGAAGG + anchor), 100 nM annealed; ATP concentration: 500 uM
Give measured switch fluorescence ratio for each item. Keep answers brief.
Write the number on its own, no unit after it.

I would be grateful if you could share the reported switch fluorescence ratio for AGCAGAAAGT . 1

# get_value(readout='switch fluorescence ratio', item= TGTGGGTCAT ) 0.976

Entry ACTGGGGATG : reported switch fluorescence ratio = ? 0.963

If you can, please state the reported switch fluorescence ratio value of GTTTTTTCCG . 0.992

Value lookup for switch fluorescence ratio; key = ACAATGTGGT 0.951

Any idea what its switch fluorescence ratio is? The sequence is GATTTGAATT 0.977

Requested field: switch fluorescence ratio. Item: AAGGTTTGTA 0.99

Fill in: switch fluorescence ratio of TTTGTGAGTT is ___ 1.02

Looking for the measured switch fluorescence ratio of TGCCTATTTC , can you help? 1.02

Which value of switch fluorescence ratio has been reported for AGGTTCGGAG in the records? 1.04

Value lookup for switch fluorescence ratio; key = GGTCTTTCG 0.979

# switch fluorescence ratio lookup, item GCGAGAGCTG 0.992

Look up switch fluorescence ratio for this sequence: TATATTTTAG 1.03

Returns the measured switch fluorescence ratio for the input sequence. Input: GATATTATGA 1.01

Entry under review: GATTAAGGT . Reported switch fluorescence ratio? 0.992

So what's the measured switch fluorescence ratio for this one? TTTCAGTACA 0.988

Item under review: TAGCAATGAA . Reported switch fluorescence ratio? 1.53

Fill blank: measured switch fluorescence ratio of the sequence AGGGGGTAAT is ____. 1.01

Could you tell me which switch fluorescence ratio is on file for CGACGAGGCT ? 1.21

Any idea what switch fluorescence ratio was measured for TGATCGGGCA ? 0.956

switch fluorescence ratio for AATTAGGTGC ? 1.14

Please report the recorded switch fluorescence ratio for CCAGGATTGG . 1

Given the entry CGAGGGAGTA , report its measured switch fluorescence ratio. 0.993

I am curious: what switch fluorescence ratio value has been reported for GGGTTGAGGG ? 1

What value of switch fluorescence ratio has been recorded for this entry: TTGCTGGAAT 1.06

Could you share which switch fluorescence ratio value was measured for GCGTTTTTTT ? 0.99

Data request, read-out switch fluorescence ratio, for AAAGATGCGG 1.01

Field request: switch fluorescence ratio | item: ATGTGTGGAG 1.01

Fill blank: measured switch fluorescence ratio of the sequence TATCGCGAAT is ____. 1.01

Please report the recorded switch fluorescence ratio for AGGTGAATGG . 1.02

Entry TCAGGGCAGC has what switch fluorescence ratio? 1.01

Any idea what switch fluorescence ratio was measured for AACCTCTCAT ? 1.08

Which measured switch fluorescence ratio value corresponds to TCGAAATTTT ? 1

Need switch fluorescence ratio of AGGATGTGAC , thanks. 1.01

Param item = TTTGCTTTAA ; retrieve measured switch fluorescence ratio. 1

Quick one: switch fluorescence ratio for GGAATACTAG ? 1.14

// switch fluorescence ratio lookup, key: TTTAATGTGG 0.999

// returns reported switch fluorescence ratio for input TTTCACTTGT 1.03

# input sequence: ACAGGAGCGT ; wanted: its switch fluorescence ratio 1.1

Name the recorded switch fluorescence ratio for ATCATTTTTT . 0.988

Please give the measured switch fluorescence ratio for this sequence: TATAGTAGTG 0.973

Dear colleague, I am looking for the recorded switch fluorescence ratio of the following sequence: GCGTATAGGG 0.964

What value of measured switch fluorescence ratio is listed for CTAATGTGCG ? 1.15

Given TTTATGGAAG , state its recorded switch fluorescence ratio. 0.988

I am curious: what switch fluorescence ratio value has been reported for TTCGATAGCA ? 1.06

For CGTCCTTGTT , what is its reported switch fluorescence ratio? 0.991

Which value of switch fluorescence ratio has been reported for AAAGGGGATG in the records? 1.01

Need switch fluorescence ratio, item GCCTTGATGG 1.01

So what's the measured switch fluorescence ratio for this one? AGTCCAGTTT 0.986

Can you look up the measured switch fluorescence ratio of AGTTATTTGA for me? 1

Need switch fluorescence ratio, item ATTCATATGT 0.999

Which switch fluorescence ratio is listed for CTTGTGGTGG ? 1.01

Recorded switch fluorescence ratio of ATAGAGGCAC , please. 1.09

Given TGCGCATCTA , state its recorded switch fluorescence ratio. 1.04

Query (sequence): CGTAGCACAG ; field requested: switch fluorescence ratio 1.31

Give its switch fluorescence ratio value. Item: AATGGCCTA 1.03

What does the record list as switch fluorescence ratio for TCTTTGACGC ? 1.21

Tell me the measured switch fluorescence ratio of TGCTGGTTTT , please. 1.01

Consider the sequence shown here: TTCACTATTT What is its recorded switch fluorescence ratio? 1.02

Using the record for ATTTTTGGGT , report its switch fluorescence ratio. 0.994

Please look up its switch fluorescence ratio: TTTGGTACTT 0.986

Can you look up the measured switch fluorescence ratio of CCTCTCCGTA for me? 1.32

Look at this sequence and give its reported switch fluorescence ratio. GGTATAGTTG 0.993

Give the measured switch fluorescence ratio of AGTTTGGGC . 0.96

Which switch fluorescence ratio is listed for GAGGAAAAAT ? 1.06

Data request, read-out switch fluorescence ratio, for TAGTGTCAGG 0.988

Which switch fluorescence ratio is reported for this sequence? GTAGTAAGAT 1.07

Item under review: GTACACTCAT . Reported switch fluorescence ratio? 1.04

Given the entry GGGGTACATG , report its measured switch fluorescence ratio. 1.02

Which switch fluorescence ratio value belongs to GAGGTTGTG ? 1.01

switch fluorescence ratio lookup needed for TTTAGATCGG , thanks. 1.01

What does the record list as switch fluorescence ratio for CGGTGGGTTG ? 0.969

switch fluorescence ratio lookup needed for TCTGATTGTG , thanks. 0.972

Consider the sequence shown here: CTTAGATGGA What is its recorded switch fluorescence ratio? 0.978

Need switch fluorescence ratio of AAATCAGGTT , thanks. 0.972

Param item = CCTATGGGGG ; retrieve measured switch fluorescence ratio. 1.49

Give the measured switch fluorescence ratio of AAAGTTTTAA . 1.02

Which switch fluorescence ratio reading was recorded for the sequence GTTTTGACAC ? 1.02

What measured switch fluorescence ratio goes with AGTGTGGAAT ? 0.954

Name the reported switch fluorescence ratio value associated with the sequence TAAGCTATTT 1.02

May I ask what switch fluorescence ratio has been recorded for ATTGGTAGAG ? 0.972

Looking for the measured switch fluorescence ratio of CTGCCCGGCG , can you help? 1.03

Record request: switch fluorescence ratio value, item GACCTTGTGC 1.03

Consider the sequence shown here: TGATACTGGG What is its recorded switch fluorescence ratio? 1.06

Give its switch fluorescence ratio value. Item: TTCTTTATGT 0.999

Sample TCTTATGTTA — what was its switch fluorescence ratio? 0.989
